Conditions: human, 1 h, pH 7.4
Where a name gives a salt, the structure may show the parent alone.
Please note: 1 applies when The cumulative amount of test compounds is 0.6 mg or greater, and -1 applies otherwise.

[[record]]
compound = "CC(OC(=O)NCCc1ccc2c(c1)OC(=O)CC(N)C(=O)O2)OC(=O)C(C)C (stereo not drawn)"
qualitative_label = 1

[[record]]
compound = "CCC(CC)OC(=O)[C@H](Cc1ccc(OC(=O)c2ccccc2)c(OC(=O)c2ccccc2)c1)NC(=O)C1CCCN1 (stereo partly drawn)"
qualitative_label = -1

[[record]]
compound = "CC(=O)Oc1ccccc1C(=O)O [Compound-32, acetylsalicylic acid, reference compound]"
qualitative_label = -1

[[record]]
compound = "CC(C)OC(=O)[C@H](Cc1ccc2c(c1)OC(=O)CC(N)C(=O)O2)NC(=O)OC(C)OC(=O)C(C)C (stereo partly drawn) [Compound-20(a), hydrobromide]"
qualitative_label = -1

[[record]]
compound = "CC(C)OC(=O)[C@H](Cc1ccc(OC(=O)c2ccccc2)c(OC(=O)c2ccccc2)c1)NC(=O)CN.Cl"
qualitative_label = -1

[[record]]
compound = "CC(OC(=O)NCCc1ccc2c(c1)OC(=O)C(N)CC(=O)O2)OC(=O)C(C)C (stereo not drawn)"
qualitative_label = 1

[[record]]
compound = "CCC(CC)C(=O)Oc1ccc(CCNC(=O)C2CCNCC2)cc1OC(=O)C(CC)CC.Cl"
qualitative_label = 1

[[record]]
compound = "CC(C)OC(=O)[C@@H](N)Cc1ccc(OC(=O)c2ccccc2)c(OC(=O)c2ccccc2)c1.Cl"
qualitative_label = -1


Data request: Decide: The cumulative amount of test compounds of CC(C(=O)O)c1cccc(Oc2ccccc2)c1 (stereo not drawn) [Compound-34, 2-(3-phenoxyphenyl) propionic acid, reference compound] >= 0.6 mg?
Data returned: -1

Data request: Determine whether this compound has The cumulative amount of test compounds no lower than 0.6 mg: `CNCC(=O)NCCc1ccc(OC(=O)c2ccccc2)c(OC(=O)c2ccccc2)c1.Cl`
Data returned: 1
